system: Bacillus subtilis; assay: cleaved RNA product abundance (RNA/gDNA barcode ratio) relative to median wild-type variant (ratio to wild type); higher = more accumulation of the downstream cleavage product; details: experiment (reporter, strain, medium): exp 8a: truncated aprE reporter, strain BJT201 with 2% xylose (RNase J1 expressed); cleavage site: glnRA (positions -5 to +31 mutated)
Recorded cleaved RNA product abundance for the following sequences
measure_name: cleaved RNA product abundance

[[record]]
polymer_sequence = "CGACATGTCCCGCTTCTTTCATTATTCCGTTAGCAACTCTTTTGCTAAATACATTTACCTTTTAAGAGGAGGAAT"
measure_name = "cleaved RNA product abundance"
reported_result = 0.422

[[record]]
polymer_sequence = "CGACATGTCCCGCTTCTTTCATTAATCGGTTAGCAACTGTTTTGCTATATACATTAACCTTTTAAGAGGAGGAAT"
measure_name = "cleaved RNA product abundance"
reported_result = 1.51

[[record]]
polymer_sequence = "CGACATGTCCCGCTTCTTTCATTAACCCGTTAGCAACTGTATTGCTATATACATTCACCTTTTAAGAGGAGGAAT"
measure_name = "cleaved RNA product abundance"
reported_result = 0.379

[[record]]
polymer_sequence = "CGACATGTCCCGCTTCTTTCATTAATCAGTTAGCAACTGTTTTCCTATATACATTTACCTTTTAAGAGGAGGAAT"
measure_name = "cleaved RNA product abundance"
reported_result = 0.433

